Form field: % inhibition of SMAD7 mRNA expression (one value per entry).
# System: human SMAD7 mRNA
# testProtocol: Antisense inhibition of human SMAD7 mRNA expression in Hep3B cells by 3-10-3 cEt gapmers, 10,000 nM, electroporation (Example 2)
# Assay type: cell-based
# conditions: Hep3B cells, electroporation with 10,000 nM antisense oligonucleotide, approximately 24 hours, primer probe set RTS5062, relative to untreated control cells
Strand notation (5' to 3'): a small letter for the sugar, then the base; units joined by * are phosphorothioate-linked, units joined directly phosphodiester-linked; [ ] holds rarer units or linkages, { } end groups; capitals alone tell only the bases. k = constrained ethyl (cEt); [5mC] = 5-methylcytosine; d = 2'-deoxy (DNA)
Answer with a number only, understood to be in %.

(Q) Field request: % inhibition of SMAD7 mRNA expression | item: 798969 (antisense kT*kG*k[5mC]*d[5mC]*dG*dA*dT*d[5mC]*dA*dT*dA*d[5mC]*d[5mC]*kT*kG*k[5mC]) [compound 798969]
(A) 48

(Q) Entry 799463 (antisense kT*kG*kG*dT*dA*dA*dG*d[5mC]*dA*d[5mC]*dT*dA*dG*kG*kT*kT) [compound 799463] : reported % inhibition of SMAD7 mRNA expression = ?
(A) 33

* * *

# Tested on: dog SMAD7 mRNA
# testProtocol: Pharmacology: dog SMAD7 mRNA expression in liver, kidney, duodenum, ileum and colon after subcutaneous administration in beagle dogs (Example 8)
# Type: in vivo
# conditions: 30 mg/kg subcutaneous, necropsy, duodenum, normalized to HPRT1
Measured % inhibition of SMAD7 mRNA expression (compared to control), Duodenum of individual entries

Illustrative cases are given below, each with its answer.
>>> df
                                  substance  val
0  830025 (antisense TTTGTAAATCGAAAGC; 3-10-3 cEt gapmer, further chemistry not given here) [compound 830025]   7%
1  790615 (CCAATGAGAATGCTTC; 3-10-3 cEt gapmer, further chemistry not given here) [compound 790615]  35%

# next substance below
(Q) Param readout = % inhibition of SMAD7 mRNA expression (compared to control), Duodenum; param system = dog SMAD7 mRNA; param query = 829994 (GGAGGCAGGGCCGCGA; 3-10-3 cEt gapmer, further chemistry not given here) [compound 829994] ; response: value
(A) 2%

* * *

Overview of recorded % Inhibition for various substances
# Tested on: human SMAD7 mRNA
# testProtocol: Antisense inhibition of human SMAD7 mRNA expression in Hep3B cells by 3-10-3 cEt gapmers, 10,000 nM, electroporation (Example 2)
# Format: cell-based
# conditions: Hep3B cells, electroporation with 10,000 nM antisense oligonucleotide, approximately 24 hours, SMAD7 mRNA by RT-PCR (RTS5062), relative to untreated control cells
Strand notation (5' to 3'): a small letter for the sugar, then the base; units joined by * are phosphorothioate-linked, units joined directly phosphodiester-linked; [ ] holds rarer units or linkages, { } end groups; capitals alone tell only the bases. k = constrained ethyl (cEt); [5mC] = 5-methylcytosine; d = 2'-deoxy (DNA)
# output: numeric value plus its unit

Reference set, count: 2
In [3]: df
Out[3]:
                                  substance  val
0  800007 (k[5mC]*kT*k[5mC]*dA*dA*dG*dG*d[5mC]*d[5mC]*dA*d[5mC]*dA*dT*kT*kT*kT; antisense) [compound 800007]  23%
1  830170 (antisense kG*k[5mC]*kT*d[5mC]*dT*dG*dT*dT*dT*dG*dG*dA*d[5mC]*kA*kA*kG) [compound 830170]  60%

Please find the next substance below.
(Q) Would you mind telling me what % Inhibition value was observed for 830016 (antisense kG*kG*kT*dG*d[5mC]*d[5mC]*d[5mC]*dA*dA*d[5mC]*d[5mC]*d[5mC]*dT*kT*k[5mC]*kA) [compound 830016] ?
(A) 32%
